Test: In vitro cytotoxicity, MTT cell viability assay in HepG2 cells
Format: cell-based
Details: human, Cytotoxicity CC50
Below: a set of entries, each annotated with reported CC50 at 7 days.

Request: Dear colleague, please send me the reported CC50 at 7 days for `Cc1cc(NC(=O)c2cc(C(F)(F)C(=O)N3CCC(O)CC3)c(Cl)cc2C)ccc1F` when you can.
Response: > 30 µM

Request: Dear colleague, please send me the reported CC50 at 7 days for `Cc1cc(NC(=O)c2ccc(Cl)c(C(F)(F)C(=O)NC(C)C)c2)ccc1F` when you can.
Response: 5 to 30 µM

Request: Dear colleague, please send me the reported CC50 at 7 days for `Cn1ccc(C(=O)Nc2ccc(F)c(Cl)c2)c1C(F)(F)C(=O)NC(C)(C)C` when you can.
Response: > 30 µM

Please examine the following record next.
Request: Dear colleague, please send me the reported CC50 at 7 days for Cn1cc(NC(=O)c2ccc(F)c(C(F)(F)C(=O)N3CCC(O)C(F)(F)C3)c2)cn1 (stereo not shown) when you can.
Response: > 30 µM

Hello, the source for this data is patent US11247965B2, in case you need it.
